The values you see were collected from patent US20170008928A1.

MEASURED_ON: human cholecystokinin-2 receptor (human, UniProt P32239 1-447)
Sequence (looked up): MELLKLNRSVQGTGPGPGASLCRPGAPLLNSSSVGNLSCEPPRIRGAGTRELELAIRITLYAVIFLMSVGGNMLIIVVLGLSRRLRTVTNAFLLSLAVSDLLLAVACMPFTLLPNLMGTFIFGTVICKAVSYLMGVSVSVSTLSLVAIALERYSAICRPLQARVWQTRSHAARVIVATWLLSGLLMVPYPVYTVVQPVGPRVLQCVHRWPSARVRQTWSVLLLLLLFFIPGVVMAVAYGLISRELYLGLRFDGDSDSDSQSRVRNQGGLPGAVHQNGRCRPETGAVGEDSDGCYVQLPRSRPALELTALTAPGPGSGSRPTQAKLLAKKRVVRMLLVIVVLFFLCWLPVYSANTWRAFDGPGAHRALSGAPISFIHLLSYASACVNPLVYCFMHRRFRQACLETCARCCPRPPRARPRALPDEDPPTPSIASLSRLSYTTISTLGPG
PROTOCOL: cell-based or functional assay
PROPERTY_NAME: EC50 (CCK-2R)

SUBSTANCE	PROPERTY_NAME	RESULT
2-[2-[2-[[2-[2-[2-[[(4S)-4-Carboxy-4-(17-carboxyheptadecanoylamino)butanoyl]amino]ethoxy]ethoxy]acetyl]amino]ethoxy]ethoxy]acetyl-Asp-sTyr-Nle-Gly-Trp-Nle-DMeAsp-1Nal-amide (peptide)	EC50 (CCK-2R)	180 nM
Asp-sTyr-Nle-Gly-Trp-Nle-DMeAsp-1Nal-amide (peptide)	EC50 (CCK-2R)	290 nM
Asp-Phe(4-sulfomethyl)-Leu-Gly-Trp-Nle-DMeAsp-MePhe-amide (peptide)	EC50 (CCK-2R)	> 1000 nM
